Please respond with reported pKd for every item in the list.
Molecular target: MAGI2_4, Q86UL8
Sequence (Q86UL8 772-865): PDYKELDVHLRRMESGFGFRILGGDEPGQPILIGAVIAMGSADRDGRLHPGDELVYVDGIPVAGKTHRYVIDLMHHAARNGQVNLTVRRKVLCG
Experiment: holdup assay
Set-up: key: below the threshold = too weak to quantify, mostly under pKd 3.1 to 4
Settings: plain residues with an end cap or a label only (N-terminal biotin on a linker: ttds)
Form rule: numeric answer, no unit written next to it.

Inquiry: Return reported pKd; argument: SSLQSLETSV [ATP2B4, P23634]
Reply text: 4.19

Inquiry: Return reported pKd; argument: EMDRRPATVV [PLCB4, Q15147]
Reply text: 3.77

Inquiry: Return reported pKd; argument: SKPTRRETEV [HPV35-E6, P27228]
Reply text: 4.34

Inquiry: Return reported pKd; argument: QRQARSETLV [HPV59-E6, Q81964]
Reply text: 5.71

Inquiry: Return reported pKd; argument: EVVHTPETSV [SLC16A3, O15427]
Reply text: 3.55

Inquiry: Return reported pKd; argument: SGSRPSATVV [HPV73-E6, Q82005]
Reply text: 4.49

Inquiry: Return reported pKd; argument: RLQRRRETQV [HPV18-E6, P06463]
Reply text: 4.28

Inquiry: Return reported pKd; argument: RLPKIKETTV [FRMPD4, Q14CM0]
Reply text: 4.24

Inquiry: Return reported pKd; argument: RHTTSTETAV [HPV30-E6, P36809]
Reply text: 4.07
